System: K4 kissing-loop RNA reporter
Assay: apparent KD of K4 kissing-loop reporter; higher = weaker reporter binding
Settings: Eterna round: R107; input ligand: FMN 200 uM
measured_attribute: apparent KD of K4 kissing-loop reporter (nM)

GUAUCGCUAGGAGGAUAUUUCAUAUAACAUAUAAAUGGAUAUGCGGAGUGAUGUUCCGAUUUACGGAAAGAAGGCCUAGUGAUAC [FMN B 19] : 119
UGUACCGAGUCAGGAUAUGGCGUCGAAAGACGAAUUCUAGUGAUGUUAGGGAUCUGCGAAAGCAGUCCAGAAGGGACUUGGUACU [FmnBS 26 U36] : 322
CGUGAGUGCCGACGGUCAUCGGUCCAUGCACGAGGACCGGUACGGCCGCCACUCGAGCGUGGCAGUGAUGUUGCCAGCGCACUAA [Oninvexece] : 114

* * *

Tested on: K4 kissing-loop RNA reporter;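 further: bound reporter read as fluorescence of individual clusters on recovered sequencing chips by microscopy, with normalized cluster intensities fitted with a binding model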
Experiment: apparent KD of K4 kissing-loop reporter; higher = weaker reporter binding
Settings: Eterna round: R107; input ligand: arginine 13.2 mM
In this section, each of the sequences is paired with its reported apparent KD of K4 kissing-loop reporter.
measured_attribute: apparent KD of K4 kissing-loop reporter (nM)

AUGCAUGAAAGUGAUGUUUUCAGUAAUGGAAAGGAUAUGCGCUGGUGCAGAAGGUUCUAAAGUGCAUCCAACAACUGGGUAGGCC [theeternabot_sameState_KL_FMN_A_36] : 316
AAUAAAAUCACGGCCGCCACUGAUGCUAAUAUUGGCAGUGAUGUUGCUAUGUAUAUUUUAUUUGACAGGACCGGGUGAAUAUUUA [#24 K4 Tryptophan B Exclusion] : 198
GGUGUGCCAAGUGAUGUUUGGCGUUCUCACCGAGGACCGGUACGGCCGCCACUCGUUAACUGACCAAGUAUCUUUACCUCGGAGA [theeternabot_sameState_KL_Trp_A_8] : 141
AAGUCUCGUUAAUUCGAGGUUGCGAUCGAUACCAGUAGCGAGAGGUACCCUUGGCAGCGAAGUGAGUGAUGUUCAUGAAAGAAGA [KL-XTheoA13] : 101
GGAUAGGACAGAGGAUAUGGUAGUGAUGUUACCAAACUGGUUACUUUUGUCAGAAAACUGGCAUUUCCAGAAGGCUGUCCUAUCG [KL-XFMN-B12] : 71
AAUGUAAUGACGGCCGCCACUGAUUACCAGUGAUGUUGGUAAAGAACUUUAUAAGUCCUGGAAACCAGGACCGGGUCAACGGUCC [Tryp B Ex t1] : 294

* * *

System: MS2 coat protein
Test: apparent KD of MS2 coat protein; higher = weaker reporter binding
Conditions: Eterna round: R107; input ligand: theophylline 2 mM
measured_attribute: apparent KD of MS2 coat protein (µM)

UGUAUGGACUGAAGGAGCGGGUUGAUAAUCUGAGGAUCACCCAGGUAAAAGGCGAAAGCCGCCCAGGUAGGUCGCAGUCCAUACU : 0.0315
ACGAACGCACCUGAGGAUCACCCGGGUGAUACCAGCCUGGAAACAGGCCCUUGGCAGCACCUAAAAUAAAGGUAACGUUCGAAUA [TheoAX9 #MicroSwitchBubble #AlternativeMS2] : 0.59
UGUAUGGACUGAAGGAGCGGGAAAAUAACUUGAGGAUCACCCAGGUAAAAGGCGAAAGCCACCCAGGUAGGUCGCAGUCCAUACU : 0.0224
GGACUAACCAGAAGGAGCGGCACAAGCAGAAACUGCAAUCCUCCGCACGAGGAUCACCCGUGUCAGGUAGGUCGCUGGUUAGUCG [ArgBX 28] : 0.0804
UGUGUCGUCUGAAGGAGCGGCUCUUGAUCCUCGUGGGACAUGAGGAUCACCCAUGUCUCGAGCCAGGUAGGUCGCAGGCGGCACA [#27 Exclusion - Arginine B] : 0.0238
GGAUUCGGCACGGCCGCCACUGCGGUGGUGUGACAUGAGGAUCACCCAUGUUGUCAUGCGGCCCUUAGGACCGGGUGGCGUUUCC [#1 Exclusion - Tryptophan B Attempt #21 (HarryS)] : 0.0733
UUGUUGUUUGGAAGGAGCGUGUAUGAGUUAGAACAUGAGGAUCACCCAUGUUGGAUGAUAGCACAGGUAGGUCGCCGGGUGGUGG [11.Y] : 0.0668
CGGCCCUCACCUGAGGAUCACCCGGGUGAUACCAGCCUGGAAACAGGCCCUUGGCAGCACCAGGUCAUCAAAGAUGACCAAGCCG [TheoAX 26 #OpenEnded #AlternativeMS2] : 2.63
UCGCUCUGGGUGAGAUCCGGAGAUAUGGAAGGAGCGCUGAUGCCAGCAGGUAGGUCGCCAACGGACAUGAGGAUCACCCAUGUAC [Same State - Arginine A (Freestyle 10)] : 0.0345
GACCCAUGAGUUGGAAAAGCUCAUGGGUCGCGAGGACCGGUACGGCCGCCACUCGGCUGUACAUGAGGAUCACCCAUGUCAGGGU [#1 Same State - Tryptophan A Attempt #25 (HarryS)] : 0.573
GGCCAAAAGGCGGCCGCCACUCAAGAGUAGCAUGGAAAGACAUGAGGAUCACCCAUGUAAAGAAAGAGGACCGGGCCAAAAGGCC : 0.262
GAGUAGAGGACGGCCGCCACUGAACAUGAGGAUCACCCAUGUCGUGAUCCGUUACCUAAAGAAGAUAGGACCGGGUCAUGUACUC [Exclusion Tryptophan B GF 19] : 0.0327
